MEASURED_ON: CYP3A4 (Homo sapiens (Human), UniProt P08684)
Sequence (P08684 whole entry): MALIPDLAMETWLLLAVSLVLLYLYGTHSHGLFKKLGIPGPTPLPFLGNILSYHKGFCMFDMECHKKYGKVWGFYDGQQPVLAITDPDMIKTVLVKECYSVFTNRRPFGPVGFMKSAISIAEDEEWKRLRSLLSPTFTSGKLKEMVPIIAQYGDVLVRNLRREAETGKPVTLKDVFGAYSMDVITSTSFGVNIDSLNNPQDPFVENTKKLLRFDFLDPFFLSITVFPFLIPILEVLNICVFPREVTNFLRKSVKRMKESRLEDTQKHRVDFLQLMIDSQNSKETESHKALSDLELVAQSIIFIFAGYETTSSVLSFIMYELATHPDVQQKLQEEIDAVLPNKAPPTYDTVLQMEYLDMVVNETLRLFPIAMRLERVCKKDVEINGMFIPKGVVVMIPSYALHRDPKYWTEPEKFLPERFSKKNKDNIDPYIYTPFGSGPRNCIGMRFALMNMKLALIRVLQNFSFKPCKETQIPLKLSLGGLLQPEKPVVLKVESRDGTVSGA
PROCEDURE_DETAILS: in vitro
CONDITION_DESCRIPTION: human

ITEM_SMILES	hit / no hit, inhibition of CYP3A4
CC(=O)c1ccc(-n2ccnc2)cc1	Hit
CC(C)(C(=O)c1cccnc1)c1cccnc1	Hit
O=C(/C=C/C=C/c1ccc2c(c1)OCO2)N1CCCCC1	Hit

---

MEASURED_ON: CYP3A4 (Homo sapiens (Human))
PROCEDURE_DETAILS: In vitro CYP3A4 inhibition assay (P450-GLO Assay kit)
CONDITION_DESCRIPTION: read-out: IC50 (uM), CYP3A4 inhibition; P450-GLO Assay kit
Text: The metabolism of retinoic acid and vitamin D in the skin is incompletely understood, but there is evidence for the involvement of CYP26A1, CYP3A4 and CYP2C8 in catalyzing the 4-hydroxylation of all-trans RA to 4-hydroxy-RA. It is believed, without being limited by theory, that CYP3A4 may be particularly important for ATRA metabolism in the skin. […]

COMPOUND	IC50
Clc1ccccc1-c1nc2ccccc2[nH]1	> 10 µM
c1ccc2[nH]cnc2c1	> 10 µM
c1coc(-c2nc3ccccc3[nH]2)c1	> 10 µM
Cc1ncc[nH]1	> 10 µM
CCc1nc(C)c[nH]1	> 10 µM
C=Cn1ccnc1	> 10 µM
Cc1ccc2cc3c(ccc4ccccc43)c3c2c1CC3	> 10 µM
CC(=O)n1ccnc1	> 10 µM
Cc1cccc(C)c1N(Cn1cccn1)C(=O)CCl	> 10 µM
N=C(N)c1ccc(OCCCCCCOc2ccc(C(=N)N)cc2)cc1 [Hexamidine diisethionate]	> 10 µM
CCc1cccc(C)c1N(C(=O)CCl)[C@@H](C)COC	> 10 µM
O=C(n1ccnc1)n1ccnc1	> 10 µM
CCCCNC(=O)n1c(NC(=O)OC)nc2ccccc21	> 10 µM
